These data points were gathered from ChEMBL document CHEMBL5380837.

# system under test: Peroxisome proliferator-activated receptor delta (Homo sapiens)
# test: Binding affinity to PPARdelta (unknown origin) at 30 uM by TR-FRET based LanthaScreen competitive binding assay relative to control
Can you tell me Activity for the items I'm about to list?
Number only, in %; omit the unit.

Recorded Activity (compound `O[C@@H]1[C@H](O)[C@@H]2C[C@@H]2[C@H]1Cn1cnc2c(NCc3cccc(Cl)c3)ncnc21` ): 13.4

The compound listed as `O[C@@H]1[C@H](O)[C@@H]2C[C@@H]2[C@H]1Cn1cnc2c(NCc3cccc(Br)c3)ncnc21` shows Activity equal to 20

Record summary for `O[C@@H]1[C@H](O)C=C[C@H]1Cn1cnc2c(NCc3cccc(Br)c3)ncnc21` : reported Activity = 4.2

// sample `O[C@@H]1C[C@@H]2C[C@]2(Cn2cnc3c(NCc4cccc(F)c4)nc(Cl)nc32)[C@@H]1O` , its Activity was 11.9

====

# system under test: Peroxisome proliferator-activated receptor alpha (Homo sapiens)
# test: Binding affinity to PPARalpha (unknown origin) at 30 uM by TR-FRET based LanthaScreen competitive binding assay relative to control
I'd appreciate it if you could supply Activity values for the items below.
The response must be a number in % with no trailing unit.

Item: `O[C@H]1[C@H](Cn2cnc3c(NCc4cccc(Cl)c4)ncnc32)CC[C@H]1O` | System: Peroxisome proliferator-activated receptor alpha (Homo sapiens) | Activity: 4

Peroxisome proliferator-activated receptor alpha (Homo sapiens) Activity of `O[C@@H]1[C@H](O)C=C[C@H]1Cn1cnc2c(NCc3cccc(Cl)c3)nc(Cl)nc21` is 4

Here `O[C@@H]1[C@H](O)[C@@H]2C[C@@H]2[C@H]1Cn1cnc2c(NCc3cccc(Cl)c3)ncnc21` was tested on Peroxisome proliferator-activated receptor alpha (Homo sapiens), and its Activity came to 6

Measured Activity (Peroxisome proliferator-activated receptor alpha (Homo sapiens)), entry `O[C@@H]1[C@H](O)C=C[C@H]1Cn1cnc2c(NCc3cccc(I)c3)ncnc21` : 4.1
